test_target: PI3 kinase alpha (Homo sapiens)
Sequence (P42336 whole entry): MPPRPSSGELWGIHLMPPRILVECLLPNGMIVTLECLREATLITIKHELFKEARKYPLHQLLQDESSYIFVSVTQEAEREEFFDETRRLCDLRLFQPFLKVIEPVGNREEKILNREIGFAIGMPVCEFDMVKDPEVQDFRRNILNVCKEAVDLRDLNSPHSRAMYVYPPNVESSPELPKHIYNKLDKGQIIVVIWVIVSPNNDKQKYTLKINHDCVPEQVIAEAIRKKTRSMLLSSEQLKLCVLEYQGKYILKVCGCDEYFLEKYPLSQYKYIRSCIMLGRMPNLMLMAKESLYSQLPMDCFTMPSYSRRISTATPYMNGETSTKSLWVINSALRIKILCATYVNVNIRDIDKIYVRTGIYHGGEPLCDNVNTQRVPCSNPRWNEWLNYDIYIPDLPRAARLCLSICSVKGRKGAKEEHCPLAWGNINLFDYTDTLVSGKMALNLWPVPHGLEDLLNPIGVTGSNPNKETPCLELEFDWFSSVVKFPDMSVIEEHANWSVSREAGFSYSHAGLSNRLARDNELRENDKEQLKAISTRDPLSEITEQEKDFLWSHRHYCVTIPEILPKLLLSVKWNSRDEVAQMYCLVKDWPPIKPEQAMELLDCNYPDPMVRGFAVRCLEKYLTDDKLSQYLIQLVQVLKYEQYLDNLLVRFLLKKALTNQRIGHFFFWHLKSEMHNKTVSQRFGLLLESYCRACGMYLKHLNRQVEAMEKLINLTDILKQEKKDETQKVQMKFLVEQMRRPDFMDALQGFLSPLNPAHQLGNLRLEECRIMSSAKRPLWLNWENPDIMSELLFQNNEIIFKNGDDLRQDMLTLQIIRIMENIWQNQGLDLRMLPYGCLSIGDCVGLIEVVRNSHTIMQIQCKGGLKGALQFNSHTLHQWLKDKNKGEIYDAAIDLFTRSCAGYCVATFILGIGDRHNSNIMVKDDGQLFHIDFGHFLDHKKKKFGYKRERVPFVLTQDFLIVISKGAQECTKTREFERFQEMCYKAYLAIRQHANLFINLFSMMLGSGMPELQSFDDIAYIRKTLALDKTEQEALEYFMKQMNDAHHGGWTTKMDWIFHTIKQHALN
Sequence (P27986 whole entry partner): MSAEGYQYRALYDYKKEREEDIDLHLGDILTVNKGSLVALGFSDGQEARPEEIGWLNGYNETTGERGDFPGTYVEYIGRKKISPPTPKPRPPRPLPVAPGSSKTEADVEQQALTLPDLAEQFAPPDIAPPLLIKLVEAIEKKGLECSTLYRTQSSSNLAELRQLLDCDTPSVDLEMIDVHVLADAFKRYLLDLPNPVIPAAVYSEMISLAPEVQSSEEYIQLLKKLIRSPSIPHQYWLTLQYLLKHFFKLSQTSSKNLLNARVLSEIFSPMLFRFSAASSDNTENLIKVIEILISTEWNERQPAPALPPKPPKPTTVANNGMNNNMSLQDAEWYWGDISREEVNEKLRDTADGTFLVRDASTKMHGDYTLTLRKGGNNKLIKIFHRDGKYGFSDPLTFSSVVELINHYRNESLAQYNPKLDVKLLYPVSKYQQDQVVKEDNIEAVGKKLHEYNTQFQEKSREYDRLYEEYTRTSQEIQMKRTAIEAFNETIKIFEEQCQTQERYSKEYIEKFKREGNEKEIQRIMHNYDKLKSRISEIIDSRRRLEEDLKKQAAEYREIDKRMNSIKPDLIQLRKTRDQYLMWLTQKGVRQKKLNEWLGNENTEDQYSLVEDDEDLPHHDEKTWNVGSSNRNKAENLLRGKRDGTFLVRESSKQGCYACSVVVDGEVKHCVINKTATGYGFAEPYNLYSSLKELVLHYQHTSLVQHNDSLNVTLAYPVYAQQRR
assay_method_text: PI3K ATP depletion assay (Biological Method 1, Assay 3; KinaseGlo luminescence)
Type: biochemical
condition_parameters: ATP depletion assay; read-out: PI3 Kinase Alpha, IC50
measured_parameter: IC50

| smiles | measured_value |
| --- | --- |
| Nc1ccc(-c2cc(Oc3cccnc3)nc(N3CCOCC3)n2)cn1 | < 1 µM |
| CS(=O)(=O)c1cccc(-c2cc(-c3cnc(N)cc3-c3nn[nH]n3)nc(N3CCOCC3)n2)c1 | < 1 µM |
| CC(=O)N1CC[C@@H](Oc2cc(-c3cnc(N)cc3C(F)(F)F)nc(N3CCOCC3)n2)C1 | < 1 µM |
| COCCNC(=O)c1cnc(N2CCOCC2)nc1-c1cnc(N)nc1 | < 10 µM |
| Nc1ncc(-c2nc(N3CCOCC3)ncc2C(=O)N2CCNC(=O)C2)cn1 | < 10 µM |
| Nc1ncc(-c2cc(Nc3ccc4nccnc4c3)nc(N3CCOCC3)n2)cn1 | < 1 µM |
| Nc1cc(C(F)(F)F)c(-c2cc(N3CCCCC3=O)nc(N3CCOCC3)n2)cn1 | < 1 µM |
| COc1ccc(Nc2cc(-c3ccc(N)nc3)nc(N3CCOCC3)n2)cn1 | < 1 µM |

----------
Test system: A2780 ovarian cancer cells
assay_method_text: Cellular proliferation in A2780 cells, Cell Titer Glo (Biological Method 4)
Assay type: cell-based
condition_parameters: Homo sapiens; ovarian cancer cell line A2780
pEC50: −log10 of the molar value.

| compound | test_target | pEC50 |
| --- | --- | --- |
| Cn1cnnc1-c1cccc(Nc2cc(-c3cnc(N)cc3C(F)(F)F)nc(N3CCOCC3)n2)c1 [Compound 171] | A2780 ovarian cancer cells | > 6.00 |
| Nc1ncc(-c2cc(Nc3ccc(Oc4ccccc4)nc3)nc(N3CCOCC3)n2)cn1 [Compound 107] | A2780 ovarian cancer cells | > 5.00 |
| Nc1ncc(-c2cc(N3CCOCC3)nc(N3CCOCC3)n2)cn1 [Compound 100] | A2780 ovarian cancer cells | > 6.00 |
| CS(=O)(=O)c1cccc(Nc2cc(-c3ccc(N)nc3)nc(N3CCOCC3)n2)c1 [Compound 139] | A2780 ovarian cancer cells | > 5.00 |
| Nc1ncc(-c2cc(N3CCCC3Cc3ccccc3)nc(N3CCOCC3)n2)cn1 (centres unmarked) [Compound 407] | A2780 ovarian cancer cells | > 5.00 |
| Nc1cc(F)c(-c2cc(Nc3cnc4ccccc4c3)nc(N3CCOCC3)n2)cn1 [Compound 4] | A2780 ovarian cancer cells | > 6.00 |
| COc1cccc2ncc(Nc3cc(-c4cnc(N)nc4C(F)(F)F)nc(N4CCOCC4)n3)cc12 [Compound 54] | A2780 ovarian cancer cells | > 6.00 |
| CS(=O)(=O)c1cccc(-c2cc(-c3cnc(N)[nH]c3=O)nc(N3CCOCC3)n2)c1 [Compound 105] | A2780 ovarian cancer cells | > 6.00 |

----------
Tested on: A2780 ovarian cancer cells
assay_method_text: Cellular proliferation in A2780 cells, Cell Titer Glo (Biological Method 4)
Format: cell-based
condition_parameters: Homo sapiens; ovarian cancer cell line A2780, Biological Method 4
pEC50: −log10 of the molar value.

| molecule | test_target | pEC50 |
| --- | --- | --- |
| Nc1cc(C(F)(F)F)c(-c2cc(NC3CCOCC3)nc(N3CCOCC3)n2)cn1 | A2780 ovarian cancer cells | > 4.60 |
| Cn1cc(-c2cc(-c3ccc(N)nc3)nc(N3CCOCC3)n2)cn1 | A2780 ovarian cancer cells | > 5.00 |
| Nc1cc(C(F)(F)F)c(-c2cc(N3CCOC(CN4CCCC4)C3)nc(N3CCOCC3)n2)cn1 (centres unmarked) | A2780 ovarian cancer cells | > 4.60 |
| Nc1cc(C(F)(F)F)c(-c2cc(Nc3cc(Cl)ccn3)nc(N3CCOCC3)n2)cn1 | A2780 ovarian cancer cells | > 5.00 |
| Nc1cc(C(F)(F)F)c(-c2cc(N3CCOC(c4ccccc4)C3)nc(N3CCOCC3)n2)cn1 (centres unmarked) | A2780 ovarian cancer cells | > 5.00 |
| Nc1ccc(-c2cc(Nc3cc(F)ccn3)nc(N3CCOCC3)n2)cn1 | A2780 ovarian cancer cells | > 4.60 |
| Nc1cc(C(F)(F)F)c(-c2cc(N3CCOC(c4ccc(C(F)(F)F)cc4)C3)nc(N3CCOCC3)n2)cn1 (centres unmarked) | A2780 ovarian cancer cells | > 5.00 |
| Nc1ccc(-c2cc(-c3cn[nH]c3)nc(N3CCOCC3)n2)cn1 | A2780 ovarian cancer cells | > 5.00 |
| Nc1ncc(-c2cc(-c3cnc(N)nc3)nc(N3CCOCC3)n2)cn1 | A2780 ovarian cancer cells | > 5.00 |
| NC(=O)c1ccccc1-c1cc(-c2ccc(N)nc2)nc(N2CCOCC2)n1 | A2780 ovarian cancer cells | > 4.60 |
| Nc1cc(C(F)(F)F)c(-c2cc(N3CCOC(c4ccccc4Cl)C3)nc(N3CCOCC3)n2)cn1 (centres unmarked) | A2780 ovarian cancer cells | > 4.60 |
| COc1ccccc1Nc1cc(-c2cnc(N)nc2)nc(N2CCOCC2)n1 | A2780 ovarian cancer cells | > 5.00 |
| Cc1cc(N)ncc1-c1cc(Nc2cnc3ccccc3c2)nc(N2CCOCC2)n1 | A2780 ovarian cancer cells | > 6.00 |
| Nc1ncc(-c2cc(Nc3nccc(C(F)(F)F)n3)nc(N3CCOCC3)n2)c(C(F)(F)F)n1 | A2780 ovarian cancer cells | > 5.00 |
| CC(=O)Nc1ccc(Nc2cc(-c3ccc(N)nc3)nc(N3CCOCC3)n2)cc1 | A2780 ovarian cancer cells | > 5.00 |
| Nc1ccc(-c2nc(N3CCOCC3)ncc2N)cn1 | A2780 ovarian cancer cells | > 4.60 |
| Nc1ncc(-c2cc(N3CCOC(c4ccccc4)C3)nc(N3CCOCC3)n2)c(C(F)(F)F)n1 (centres unmarked) | A2780 ovarian cancer cells | > 4.60 |

----------
Test system: A2780 ovarian cancer cells
assay_method_text: Cellular proliferation in A2780 cells, Cell Titer Glo (Biological Method 4)
Type: cell-based
condition_parameters: Homo sapiens; ovarian cancer cell line A2780
Description: In addition, many of the compounds of Table 1 were tested to determine their inhibitory activity in a cellular proliferation assay according to Biological Method 4. The ability of the compounds of the invention to inhibit cellular proliferation were determined by using Cell Titer Glo, a commercially available assay from Promega Corporation. […]
Measured EC50 of individual entries

| smiles | EC50 |
| --- | --- |
| N#Cc1cc(N)ncc1-c1cc(OC2CCOCC2)nc(N2CCOCC2)n1 | < 1 µM |
| Nc1ncc(-c2cc(OC3CCN(C(=O)OC4CCCC4)CC3)nc(N3CCOCC3)n2)c(N)n1 | < 1 µM |
| CC(C)(C)NS(=O)(=O)c1ccccc1-c1cc(-c2cnc(N)cc2C(F)(F)F)nc(N2CCOCC2)n1 | < 25 µM |
| Nc1ncc(-c2cc(Nc3ccc(N4CCNCC4)nc3)nc(N3CCOCC3)n2)cn1 | < 1 µM |
| CN1CCN(C(=O)c2cnc(N3CCOCC3)nc2-c2cnc(N)nc2)CC1 | < 25 µM |
| CCN(CC)Cc1cnc(Nc2cc(-c3cnc(N)nc3C(F)(F)F)nc(N3CCOCC3)n2)s1 | < 1 µM |
| CC(C)OC(=O)N1CCC(Oc2cc(-c3cnc(N)nc3N)nc(N3CCOCC3)n2)CC1 | < 1 µM |
| Nc1ncc(-c2cc(Nc3cnc4ccc(OC(F)(F)F)cc4c3)nc(N3CCOCC3)n2)cn1 | < 25 µM |
| Cc1c(Nc2ccc3c(c2)OCCO3)nc(N2CCOCC2)nc1-c1cnc(N)nc1 | < 1 µM |
| CNc1cc(-c2cnc(N)nc2)nc(N2CCOCC2)n1 | < 25 µM |
| CS(=O)(=O)c1cccc(-c2cc(-c3cnc(N)nc3N)nc(N3CCOCC3)n2)c1 | < 1 µM |
| Nc1ncc(-c2cc(OC3CCOCC3)nc(N3CCOCC3)n2)c(C(F)(F)F)n1 | < 10 µM |
| Nc1cc(C(F)(F)F)c(-c2cc(Nc3nc(-c4ccccc4)cs3)nc(N3CCOCC3)n2)cn1 | < 10 µM |
| CC(C)N1CC[C@@H](Oc2ccc(Nc3cc(-c4cnc(N)cc4C(F)(F)F)nc(N4CCOCC4)n3)cn2)C1 | < 1 µM |
| CS(=O)(=O)N1CCC(Oc2cc(-c3cnc(N)nc3C(F)(F)F)nc(N3CCOCC3)n2)CC1 | < 1 µM |
| Nc1ncc(-c2nc(N3CCOCC3)ncc2C(F)(F)F)cn1 | < 25 µM |
| Nc1ncc(-c2cc(OC3CCN(C(=O)OCc4ccccc4)CC3)nc(N3CCOCC3)n2)c(C(F)(F)F)n1 | < 10 µM |
| COc1cccc2ncc(Nc3cc(-c4cnc(N)nc4)nc(N4CCOCC4)n3)cc12 | < 1 µM |
| COC(=O)N1CCC[C@@H](Oc2cc(-c3cnc(N)nc3N)nc(N3CCOCC3)n2)C1 | < 1 µM |
| Nc1cc(C(F)(F)F)c(-c2cc(O[C@@H]3CCOC3)nc(N3CCOCC3)n2)cn1 | < 10 µM |
| Nc1ncc(-c2cc(Nc3ccccc3F)nc(N3CCOCC3)n2)cn1 | < 10 µM |
| N#Cc1ccc(Nc2cc(-c3ccc(N)nc3)nc(N3CCOCC3)n2)cc1 | < 10 µM |
| Cc1c(-c2ccc(S(C)(=O)=O)cc2)nc(N2CCOCC2)nc1-c1cnc(N)nc1 | < 10 µM |
| Nc1cc(C(F)(F)F)c(-c2cc(OC3CCOCC3)nc(N3CCOCC3)n2)cn1 | < 1 µM |
| N#Cc1cc(N)ncc1-c1cc(N2CCOCC2)nc(N2CCOCC2)n1 | < 1 µM |
| CS(=O)(=O)c1cc(Nc2cc(-c3cnc(N)cc3C(F)(F)F)nc(N3CCOCC3)n2)ccn1 | < 1 µM |
| Nc1ccc(-c2cc(Nc3cc(F)ccc3F)nc(N3CCOCC3)n2)cn1 | < 10 µM |
| CC(C)C(=O)N1CCC(Oc2cc(-c3cnc(N)nc3C(F)(F)F)nc(N3CCOCC3)n2)CC1 | < 1 µM |
| Nc1cc(C(F)(F)F)c(-c2cc(Nc3cnc4ccc(OCCN5CCCC5)cc4c3)nc(N3CCOCC3)n2)cn1 | < 10 µM |
| CC(=O)N1CCC[C@H](Oc2cc(-c3cnc(N)nc3N)nc(N3CCOCC3)n2)C1 | < 10 µM |
| Nc1ncc(-c2cc(NC(=O)c3cccnc3)nc(N3CCOCC3)n2)cn1 | < 10 µM |
| Nc1cc(C(F)(F)F)c(-c2cc(Nc3cnc4ccccc4c3)nc(N3CCOCC3)n2)cn1 | < 1 µM |
| N#Cc1cnc(Nc2cc(-c3cnc(N)nc3C(F)(F)F)nc(N3CCOCC3)n2)s1 | < 25 µM |
